target: T1, CD8α-Fc fusion protein (human); assay: ELISA on coated CD8α-Fc, relative to C2-cHis control
T1 construct: also called CD8 α-Fc protein; CD8α-Fc tag antigen
T1 sequence (chain, as listed by the source): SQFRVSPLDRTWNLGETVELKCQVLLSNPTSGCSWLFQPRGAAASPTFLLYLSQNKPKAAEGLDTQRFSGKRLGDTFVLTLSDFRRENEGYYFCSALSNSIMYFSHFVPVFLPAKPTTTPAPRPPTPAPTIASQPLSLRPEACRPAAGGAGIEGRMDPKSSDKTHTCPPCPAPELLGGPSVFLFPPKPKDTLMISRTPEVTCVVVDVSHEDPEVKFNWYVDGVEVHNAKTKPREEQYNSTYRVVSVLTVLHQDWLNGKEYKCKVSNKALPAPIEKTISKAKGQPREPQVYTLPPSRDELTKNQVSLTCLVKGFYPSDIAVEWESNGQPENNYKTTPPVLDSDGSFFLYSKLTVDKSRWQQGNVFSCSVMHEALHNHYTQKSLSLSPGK
Relative activity (%) values, listed per item
Reply numerically in %, unit not repeated.

Illustrative cases are given below, each with its answer.
>  <binder>
C27-cHis antibody (VHH, HEK293 construct; an E. coli preparation is also described) VHH: QLQLVESGGGLVQPGGSLRLSCVVSGSIFAINTMGWYRQAPGKQRELVATMHSGGSTNYADSVKGRFTISRDAAPKTVYLQMNSLKPADTAVYYCHADDSGWGTVDSWGQGIQVTVSS

>  <unit-descriptor>
%

>  <Relative activity (%)>
96.4

$$$$
>  <binder>
C42-cHis antibody (VHH, HEK293 construct; an E. coli preparation is also described; Biotinylated for the ForteBio assay; also called SNA006b; SNA006-b) VHH: QVQLVESGGGLVQAGGSLRLSCAASGLTFEDYAIGWFRQAPGKEREGISCIRIYDGNTYSAESVKGRFTISSDNAKNQVYLQINTLKPEDTAVYYCAAGSYYSCSVYPDYDMDYWGKGTLVTVSS

>  <unit-descriptor>
%

>  <Relative activity (%)>
269

$$$$
>  <binder>
C46-cHis antibody (VHH, HEK293 construct; an E. coli preparation is also described; Biotinylated for the ForteBio assay; also called SNA006c; SNA006-c) VHH: QVQLVESGGGLVQAGGSLRLSCAASGVTFDDLAIGWFRQVPGKGREGVSTIGTSDGTAYYADSVKGRFTISSDNAKNTVYLQMNSLKPEDTAVYYCAVDLDYGLGSLLPMGYDYWGQGTQVTVSS

>  <unit-descriptor>
%

>  <Relative activity (%)>
175

$$$$

In: Which Relative activity (%) value is on record for C37-cHis antibody (VHH, HEK293 construct; an E. coli preparation is also described; Biotinylated for the ForteBio assay; also called C37-his; SNA006a) VHH: QLQLVESGGGLVQAGGSLRLSCAASGLTFEDYAIGWFRQAPGKEREGISCIRIYDGNTYSAESVKGRFTISSDNAKNQVYLQINTLKPEDTAVYYCAAGSYYSCSVYPDYDMDYWGKGTLVTVSS ?
Out: 322

In: Which value of Relative activity (%) has been reported for C24-cHis antibody (VHH, HEK293 construct; an E. coli preparation is also described) VHH: QVQLVESGGGLVQPGGSLRLSCAASGPIFSINTMGWYRQAPGKQRELVATMHSTGSTNYADSVKGRFTISRDNAKKTVYLQMNSLKPDDTAVYYCHVDDTGWGTVDSWGQGIQVTVSS in the records?
Out: 47.9

In: Fill blank: measured Relative activity (%) of the binder C29-cHis antibody (VHH, HEK293 construct; an E. coli preparation is also described) VHH: QVQLVESGGGLVQAGGSLRLSCVASGFTSDDYVIGWFRQAPGKEREGVSCISSSDGTTNYADSVKGRFTISSDNAKNTVYLQMNSLKPEDTAVYYCAADPMRVCPYSGTYYGILGFGTSGQGTQVTVSS is ____.
Out: 61.9

In: What Relative activity (%) value was documented for this binder, S5-cHis antibody (VHH, HEK293 construct; an E. coli preparation is also described; Biotinylated for the ForteBio assay; also called SNA006d; SNA006-d) VHH: QVQLVESGGGLVQAGGSLRVSCAASGGTFSSTAMGWFRQAPGKEREFVAAISWSGGYTYYADSVRGRFTISRDNALNTVSLQMNSLKPEDTAVYYCAADISGLDTVAAGIFTEPNIDYWGKGTLVTVSS ?
Out: 180
